Data provenance is BigSolDB 2.1.

# test-conditions: in water, 323.15 K
metric: solubility (mole fraction)
# respond with the number and nothing more

Read the entry C=CC(=O)N1CCC[C@@H](n2nc(-c3ccc(Oc4ccccc4)cc3)c3c(N)ncnc32)C1 and write its reported solubility (mole fraction).
7.69e-07

====

# test-conditions: in water, 308.15 K
metric: solubility (mole fraction)
# respond with the number and nothing more

Read the entry C=CC(=O)N1CCC[C@@H](n2nc(-c3ccc(Oc4ccccc4)cc3)c3c(N)ncnc32)C1 and write its reported solubility (mole fraction).
3.11e-07

====

# test-conditions: in transcutol, 323.15 K
metric: solubility (mole fraction)
# respond with the number and nothing more

Read the entry C=CC(=O)N1CCC[C@@H](n2nc(-c3ccc(Oc4ccccc4)cc3)c3c(N)ncnc32)C1 and write its reported solubility (mole fraction).
0.0392

====

# test-conditions: in transcutol, 308.15 K
metric: solubility (mole fraction)
# respond with the number and nothing more

Read the entry C=CC(=O)N1CCC[C@@H](n2nc(-c3ccc(Oc4ccccc4)cc3)c3c(N)ncnc32)C1 and write its reported solubility (mole fraction).
0.0318

====

# test-conditions: in water, 313.15 K
metric: solubility (mole fraction)
# respond with the number and nothing more

Read the entry C=CC(=O)N1CCC[C@@H](n2nc(-c3ccc(Oc4ccccc4)cc3)c3c(N)ncnc32)C1 and write its reported solubility (mole fraction).
4.13e-07
